# measurement_protocol: yeast display, Sf9 membrane polyspecificity reagent, FACS + sequencing; frameworks hold sequencing errors
quantity: polyreactivity (PSR sort gate)

ordered_residues=QVQLVESGGGLVQAGGSLRLSCADSGRIFQPNVMGWYRQAPGKERELVAAIRSGSSTYYADSVKGRFTISRDNAKNTVYLQMNSLKPEDTAVYYCATRRAGRGYDYWGQGTQVTVSS quantity="polyreactivity (PSR sort gate)" experimental_result="high polyreactivity"
ordered_residues=QVQLVESGGGLQQAGGSLRLSCDASGITFRQYTMGWCRQAPGKERELVAAITSSGRTYYADSVKGRFTISRDNAKNTVYLHMNSLKPEDTAVYYCAAETYYFGYGYWGQGTQVTVSS quantity="polyreactivity (PSR sort gate)" experimental_result="high polyreactivity"
ordered_residues=QVQLVESGGGLVQAGGSLRLSCAASGLTFSVNAMGWYRQAPGKERELVAAINYGGGSTYYADSVKGRFTISRDNAKNTVYLQMNSLKPEDTAVYYCAAVPYPRGKGYDYWGQGTQVTVSS quantity="polyreactivity (PSR sort gate)" experimental_result="high polyreactivity"

====

# measurement_protocol: yeast display, Sf9 membrane polyspecificity reagent, FACS + sequencing; frameworks hold sequencing errors
quantity: polyreactivity (PSR sort gate)

Some sequences with known polyreactivity (PSR sort gate) results, for comparison:
ordered_residues=QVQLEDSGGGLVQAGGSLRLSCAASGRTFTYYAMGWYRQAPGKERELVATISYSGGSTYYADSVKGRFTISRDNAKNTVYLQMNSLKPEDTAVYYCATSGSGPWWKLYYSGQGTQVTVSS quantity="polyreactivity (PSR sort gate)" experimental_result="low polyreactivity"
ordered_residues=QVQLQESGGGLVQGGGSLRLSCAASGSIYRSWYMGWYRQAPGKERELVASITEGATTNYAYSVKAALPLAAITRNTVYLQMDSMKPEDTAVYYRAASFGSTYDLVYWGQGTQVTVSS quantity="polyreactivity (PSR sort gate)" experimental_result="high polyreactivity"
ordered_residues=QVHLVESGGCLVQAGGTLRLSCAASGFTYKWYAMGWYRQAPGKERELVATITIGGRTNYADSVKGRFTISRDNAKNTVYLQMNSLKTEETAVYYCATYFVGLRLSDYDYWGQGTQVTVSS quantity="polyreactivity (PSR sort gate)" experimental_result="low polyreactivity"
ordered_residues=QVQLVESGGGLVQAGGSLRLSCAASGITFVLYAMGWYRQAPGKERELVAAITWRGGSTYYADSVKGRFTISRDNAKNTVYLQMNSLKPEDTAVYYCAAVQFTSYRQGDYWGQGTQVTVSS quantity="polyreactivity (PSR sort gate)" experimental_result="low polyreactivity"
ordered_residues=QVQLVESGGGLVQAGGSLRLSCAASGRIFDTNVMGWYRQAPGKERELVAAISSGGSTYYADSVKGRFTISRDNAKNTVYLQMNSLKPEDTAVYFCAAESRTSRARRYYWGQGTQVTVSS quantity="polyreactivity (PSR sort gate)" experimental_result="high polyreactivity"
ordered_residues=QVQLVESGGGLVQAGGSLRLSCAASGSTFRYYVMGWYRQAPGKERELVAAISSSGGSTYYADSVKGRFTISRDNAKNTVYLQMNSLKPEDTAVYYCARDKGYVSYRYNYWGQGTQVTVSS quantity="polyreactivity (PSR sort gate)" experimental_result="high polyreactivity"
ordered_residues=QVQLVESGGGLVQAGGSLRLSSAASGSTFGPYAMGWYRQAPGKERELVAAISRRGTSTYYADSVKGRFTISRDNAKNTVYLQMNSLKPEDTAVYYCNAVTSSFFNRDSDYWGQGNQVTVSS quantity="polyreactivity (PSR sort gate)" experimental_result="high polyreactivity"
ordered_residues=QVQLVESGGCLVQAGGSLRLSCAASGRTFYRYAMGWSRQAPGKERELVATISSRGTSTYYADSVKGRFTISRDNAKNTVYLQMNSLKPEDTAVYYCAVRGYAAGRHGYAYWGQGTQVTVSS quantity="polyreactivity (PSR sort gate)" experimental_result="high polyreactivity"
ordered_residues=QVQLVESGGGLVQAGGSLRLSCAASGFTFYYYAMGWYRQAPGKERELVAAITSSGGRTYYADSVKGRFTISRDNAKNTVYLQMNSLKPEDTAVYYCAATGFYHRGEYYYWGQGTQVTVSS quantity="polyreactivity (PSR sort gate)" experimental_result="low polyreactivity"
ordered_residues=QVQLVESGGGLVQAGGSLRLSCAASGLIFRWYAMGWYRQAPGKERELDAAISTSGGRTYYADSVKGRFTISRDNAKNTVYLQMNSLKPEDTAVYYCNAQHASWYTAYSVSFDYWGQGTQVTVSS quantity="polyreactivity (PSR sort gate)" experimental_result="low polyreactivity"

**Q:** Given the entry QVQLVESGGGLVQAGGSLRLSCAASGSTFYLYAMGWYRQAPGKERELVAAISRGGTTYYADSVKGRFTISRDNAKNTVYLKMNSLKPEDTAVYYCAARRPWWYGGGMDYWGQGTQVTVSS , report its measured polyreactivity (PSR sort gate).
**A:** high polyreactivity

**Q:** Given the entry QVQLVESGGGLVQAGGSHRLSCAASGRIFRGYPMGWYRPAPGKERELGAAITSRGGSTYADSVKGRFTISRDNAKNTVYLQMNSLKPEDSAVYYCNAGYRAYSAKLVFRGYPRYDYWGQGTQVTVSS , report its measured polyreactivity (PSR sort gate).
**A:** low polyreactivity

**Q:** Given the entry QVQLVESGGGLVQAGGSLRLSCAASGSTFPSNAMGWYRQAPGKERELVAAISRSGGSTYYADSVKGRFTISRDNAKNTVYLQMNSLKPEDTAVYFCAVQVRPNSGGTRIHRGGYDYWGQGTQVTVSS , report its measured polyreactivity (PSR sort gate).
**A:** low polyreactivity

**Q:** Given the entry QVQLVESGGGLVQAGGSLRLSCAASGRIVLGYAMGWYRQQPGKEMELVAAISRSGGGTFYADSVKGRFTISRDNAKNTVYLQMNSLKPEDTAVYYCNARRGRASGMDYWGQGTQVTVSS , report its measured polyreactivity (PSR sort gate).
**A:** high polyreactivity

Values were extracted from the nanobody polyreactivity screen of Harvey et al. (2022).
